The binders listed here are annotated with their pEC50.
Molecular target: LHRH binding sites on EFO-27 human ovarian cancer cells (human)
Assay: competition with [125I-Tyr8]BRU-2477 on EFO-27 cells
pEC50: −log10 of the molar value. Non-standard residues stand in square brackets, D forms with d. Primed or numbered codes have the meaning given here. azaGly′ = aza-glycine residue at the C-terminus, with NH2; Bpa = N[C@@H](Cc1ccc(C(=O)c2ccccc2)cc1)C(=O)O; d2Nal = N[C@H](Cc1ccc2ccccc2c1)C(=O)O; DO3A10CM = not defined here; Ampg4 = not defined here; Ampt4 = not defined here; azaGly = NNC(=O)O
Observed Property: pEC50

>>> experimental_value("DO3A10CM-[d2Nal][Ampg4]WSH[dR]W[Bpa]P[azaGly′]-NH2 (not fully specified; printed as DO3A10CM-Dnal2-Ampg4-Trp-Ser-His-Darg-Trp-Bpa4-Pro-azaGly-NH2; reading uncertain) [BRU-3060]")
6.47
>>> experimental_value("GXRWSHXWXPX (DO3A10CM-Gly (linker) on N-terminus; AA1 Dtic; AA6 Darg; AA8 Bpa4; AA10 azaGly-NH2) [BRU-3067]")
6.29
>>> experimental_value("XHWSHXWXPX (DO3A10CM on N-terminus; AA1 Sar; AA6 Darg; AA8 Ing2; AA10 azaGly-NH2) [BRU-2765]")
5.06
>>> experimental_value("DO3A10CM-[d2Nal]RWSH[dR]W[Bpa][Ampt4][azaGly]-NH2 (reading uncertain) [BRU-2995]")
6.39

Entry source: patent US20120045393A1
